Biological target: S100A4 (Homo sapiens)
Construct: made in house; host or cells: Escherichia coli BL21(DE3)
Sequence (P26447 whole entry): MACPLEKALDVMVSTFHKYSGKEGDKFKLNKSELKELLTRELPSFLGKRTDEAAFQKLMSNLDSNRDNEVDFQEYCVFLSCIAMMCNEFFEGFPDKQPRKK
Experiment: Competition pull-down with native ligand NMIIA (1893–1923)
Format: binding
Conditions: H14 library; competitor peptide 200 µM; read-out: Surface mapping KD (apparent), competition
pKd: −log10 of the molar value.
assay.metric: pKd

* CC[C@H](C)[C@@H](CC(=O)N[C@H]1CCCC[C@@H]1C(N)=O)NC(=O)[C@H]1CCCC[C@@H]1NC(=O)[C@H]1CCCC[C@@H]1NC(=O)C[C@H](CC(C)C)NC(=O)[C@H]1CCCC[C@@H]1N | 4.00
* CC[C@H](C)[C@@H](CC(=O)N[C@H]1CCCC[C@@H]1C(N)=O)NC(=O)[C@H]1CCCC[C@@H]1NC(=O)[C@H]1CCCC[C@@H]1NC(=O)C[C@H](CCSC)NC(=O)[C@H]1CCCC[C@@H]1N | 3.35
* CC[C@H](C)[C@@H](CC(=O)N[C@H]1CCCC[C@@H]1C(N)=O)NC(=O)[C@H]1CCCC[C@@H]1NC(=O)[C@H]1CCCC[C@@H]1NC(=O)C[C@@H](NC(=O)[C@H]1CCCC[C@@H]1N)C(C)C | 3.61
